Just for reference, ChEMBL document CHEMBL1143245 is where these values come from.

- assay protocol: Stability in aqueous buffer at pH 7.4
- Assay type: physicochemical
metric: half-life
Value and unit, in that order.

Exam item: Annotate the compound CC(C(=O)Oc1ccc(C[C@H](N)C(=O)O)cc1)c1cccc(C(=O)c2ccccc2)c1.Cl (stereo partly specified) with its measured half-life.
Marked response: 22.5 h

---

- assay protocol: Stability in rat liver assessed as half life of hydrolysis
- Assay type: ADME, tissue-based
metric: half-life

Exam item: Annotate the compound CC(C(=O)Oc1ccc(C[C@H](N)C(=O)O)cc1)c1cccc(C(=O)c2ccccc2)c1.Cl (stereo partly specified) with its measured half-life.
Marked response: 2.8 min

---

- assay protocol: Drug uptake in rat brain after 60 secs perfusion
- Type: ADME, tissue-based
- experimental conditions: brain, other: perfusion
metric: Km at 1 min (µM)
// return numeric value only (unit: µM, not printed)

Exam item: Annotate the compound CC(C(=O)Oc1ccc(C[C@H](N)C(=O)O)cc1)c1cccc(C(=O)c2ccccc2)c1.Cl (stereo partly specified) with its measured Km at 1 min.
Marked response: 22.5

---

- study target: Large neutral amino acids transporter small subunit 1 (Rattus norvegicus) (UniProt Q63016)
- Sequence (Q63016 whole entry, looked up): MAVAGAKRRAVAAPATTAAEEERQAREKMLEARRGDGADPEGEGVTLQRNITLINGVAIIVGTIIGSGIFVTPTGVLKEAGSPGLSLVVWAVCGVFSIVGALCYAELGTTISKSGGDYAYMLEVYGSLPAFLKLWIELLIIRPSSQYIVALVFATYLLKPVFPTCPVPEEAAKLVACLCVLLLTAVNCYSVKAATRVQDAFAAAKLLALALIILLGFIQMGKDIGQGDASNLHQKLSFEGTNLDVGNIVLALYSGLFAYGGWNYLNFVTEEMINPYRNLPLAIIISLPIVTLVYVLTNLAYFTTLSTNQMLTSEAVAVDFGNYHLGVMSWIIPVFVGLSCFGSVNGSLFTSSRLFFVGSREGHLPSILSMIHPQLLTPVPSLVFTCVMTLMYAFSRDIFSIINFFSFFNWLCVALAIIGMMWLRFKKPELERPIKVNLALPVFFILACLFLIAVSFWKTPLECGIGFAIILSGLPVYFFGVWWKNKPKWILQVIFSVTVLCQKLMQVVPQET
- assay protocol: Binding affinity at LAT1 in rat brain assessed Inhibition of [14C]L-leucine PA uptake at 70 uM
- Format: tissue-based
Catalogue of Activity values
Value and unit, in that order.

Exam item: Annotate the compound CC(C(=O)OCCOC(=O)[C@@H](N)Cc1ccccc1)c1cccc(C(=O)c2ccccc2)c1 (some centres undefined) with its measured Activity.
Marked response: 0.0282 mL/s/g

---

- assay protocol: Stability in rat brain assessed as half life of hydrolysis
- Assay type: ADME, tissue-based
metric: half-life (min)
// return numeric value only (unit: min, not printed)

Exam item: Annotate the molecule CC(C(=O)Oc1ccc(C[C@H](N)C(=O)O)cc1)c1cccc(C(=O)c2ccccc2)c1.Cl (stereo partly specified) with its measured half-life.
Marked response: 4.4

---

- study target: Large neutral amino acids transporter small subunit 1 (Rattus norvegicus) (UniProt Q63016)
- assay protocol: Binding affinity at LAT1 in rat brain assessed Inhibition of [14C]L-leucine PA uptake at 70 uM
- Type: tissue-based
metric: Activity
Value and unit, in that order.

Past entries and their recorded results:
- molecule: "CC(C)C[C@H](N)C(=O)OCCOC(=O)C(C)c1cccc(C(=O)c2ccccc2)c1 (stereo partly drawn)"
  Activity: "0.0212 mL/s/g"
- molecule: "CC(C(=O)NC(Cc1ccccc1)C(=O)O)c1cccc(C(=O)c2ccccc2)c1 (stereo not drawn)"
  Activity: "0.0191 mL/s/g"

Now consider the entry below.
Exam item: Annotate the molecule CC(C)CC(NC(=O)C(C)c1cccc(C(=O)c2ccccc2)c1)C(=O)O (stereo not drawn) with its measured Activity.
Marked response: 0.0266 mL/s/g
